system_under_test: IRAK4 (Homo sapiens)
Construct: endogenous in cells; host or cells: THP-1 cells
Sequence (Q9NWZ3 1-460): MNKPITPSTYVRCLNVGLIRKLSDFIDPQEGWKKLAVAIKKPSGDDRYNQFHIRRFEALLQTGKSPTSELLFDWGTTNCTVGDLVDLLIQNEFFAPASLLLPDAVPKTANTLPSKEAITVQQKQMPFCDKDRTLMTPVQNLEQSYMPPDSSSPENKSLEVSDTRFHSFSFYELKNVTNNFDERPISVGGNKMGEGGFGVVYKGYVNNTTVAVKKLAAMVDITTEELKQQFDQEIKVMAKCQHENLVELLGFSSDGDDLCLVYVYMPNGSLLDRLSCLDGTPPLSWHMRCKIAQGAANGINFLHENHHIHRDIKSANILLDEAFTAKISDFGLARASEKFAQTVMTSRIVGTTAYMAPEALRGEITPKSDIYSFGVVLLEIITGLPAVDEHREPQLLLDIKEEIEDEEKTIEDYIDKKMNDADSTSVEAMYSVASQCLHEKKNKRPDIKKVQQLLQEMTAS
assay_notes: LVL THP1 HTRF (THP1 Homogeneous Time Resolved Fluorescence)
Assay type: cell-based
conditions_used: THP1 cells, 18 h incubation with compound, read-out: LVL THP1 HTRF EC50
List of DC50 values.
Form entry: value (nM) — number only.

DC50 for C[C@@H]1CN(CC[C@H]2CC[C@H](c3cn(-c4cnc(-n5ncc6cc(C#N)cnc65)cc4NC4(C#N)CC4)nn3)CC2)CCN1c1ccc([C@@]2(C)CCC(=O)NC2=O)cc1 [P-301] ?
103

DC50 for CC(C#N)Nc1cc(-n2ncc3cc(C#N)cnc32)ncc1-n1cc(C2CCC(C(F)CN3CCN(c4ccc(C5CCC(=O)NC5=O)cc4)CC3)CC2)nn1 (stereo not shown) [P-198] ?
10

DC50 for C[C@H](C#N)Nc1cc(-n2ncc3cc(C#N)cnc32)ncc1-n1cc(C2CCC(O)(CCN3CCN(c4ccc(C5CCC(=O)NC5=O)cc4)CC3)CC2)nn1 (stereo partly shown) [P-227] ?
2

Let's switch to this molecule now.
DC50 for C[C@H](C#N)Nc1cc(-n2ncc3cc(C#N)c(N)nc32)ncc1-n1cc(C2CCC(CCN3CCN(c4ccc(C5CCC(=O)NC5=O)cc4)[C@@H](C)C3)CC2)nn1 (stereo partly shown) [P-219] ?
6

Reference source for all entries: patent US20240109881A1
